molecular target: purified human recombinant aldose reductase (Homo sapiens, UniProt P15121); experiment: Aldose reductase (AR) inhibition, spectrophotometric NADPH oxidation assay; conditions: read-out: Aldose reductase inhibitory IC50
Counter-ions that a name gives are not always drawn.
readout_name: IC50

Record COc1ccccc1OCCNCC(O)COc1cccc2[nH]c3ccccc3c12 (centres unmarked) / purified human recombinant aldose reductase (Homo sapiens, UniProt P15121), IC50 recorded as > 350 µM

Record COCCc1ccc(OCC(O)CNC(C)C)cc1 (centres unmarked) [Metoprolol, metoprolol tartrate] / purified human recombinant aldose reductase (Homo sapiens, UniProt P15121), IC50 recorded as > 350 µM

Record CC(C)NCC(O)COc1cccc2ccccc12.Cl (centres unmarked) [Propranolol, propranolol hydrochloride] / purified human recombinant aldose reductase (Homo sapiens, UniProt P15121), IC50 recorded as 350 µM

Record CC(C)(C)NC[C@H](O)COc1nsnc1N1CCOCC1 [Timolol, timolol maleate] / purified human recombinant aldose reductase (Homo sapiens, UniProt P15121), IC50 recorded as 250 µM

Record CC(C)NCC(O)c1ccc(NS(C)(=O)=O)cc1 (centres unmarked) [Sotalol, sotalol hydrochloride] / purified human recombinant aldose reductase (Homo sapiens, UniProt P15121), IC50 recorded as > 350 µM

Record OC(CNCC(O)C1CCc2cc(F)ccc2O1)C1CCc2cc(F)ccc2O1 (centres unmarked) [Nebivolol, nebivolol hydrochloride] / purified human recombinant aldose reductase (Homo sapiens, UniProt P15121), IC50 recorded as > 350 µM

Record COC(=O)CCc1ccc(OCC(O)CNC(C)C)cc1 (centres unmarked) [Esmolol, esmolol hydrochloride] / purified human recombinant aldose reductase (Homo sapiens, UniProt P15121), IC50 recorded as 160 µM

Record CC(CCc1ccccc1)NCC(O)c1ccc(O)c(C(N)=O)c1 (centres unmarked) [Labetalol, labetalol hydrochloride] / purified human recombinant aldose reductase (Homo sapiens, UniProt P15121), IC50 recorded as > 350 µM
